Kindly supply the reported IC50, TF-1 cell proliferation values for the records listed here.
test-system: T1, human GM-CSFRα, full length on cells (human, UniProt P15509 23-400)
T1 sequence: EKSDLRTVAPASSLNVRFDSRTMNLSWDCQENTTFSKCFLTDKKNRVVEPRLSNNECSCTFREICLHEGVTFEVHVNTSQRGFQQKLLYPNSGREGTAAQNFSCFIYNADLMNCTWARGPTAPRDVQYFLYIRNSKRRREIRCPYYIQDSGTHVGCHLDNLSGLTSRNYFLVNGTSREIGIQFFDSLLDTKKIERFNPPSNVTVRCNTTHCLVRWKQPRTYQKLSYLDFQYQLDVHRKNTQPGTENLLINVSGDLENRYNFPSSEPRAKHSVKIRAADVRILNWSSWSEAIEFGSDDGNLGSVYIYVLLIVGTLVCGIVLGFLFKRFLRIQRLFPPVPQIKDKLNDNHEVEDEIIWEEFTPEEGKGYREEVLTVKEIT
assay-remarks: cell-based or functional assay
# value in µg/mL; strip the unit string

Supply IC50, TF-1 cell proliferation value. Item: E35-scFv HT28K (scFv, V domains shown) VH: QMQLVQSGAEVKKPGASVKVSCKVSGYKLTELSIHWVRQAPGKGLEWMGGFDPEDGETIYAQKFQGRVTMTGDTSTDTAYLELSSLRSEDTALYYCATGRYTSLATTYGFDYWGQGTLVTVSS VL: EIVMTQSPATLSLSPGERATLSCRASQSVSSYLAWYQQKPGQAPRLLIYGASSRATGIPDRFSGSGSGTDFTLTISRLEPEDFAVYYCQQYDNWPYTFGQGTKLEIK
0.217

Supply IC50, TF-1 cell proliferation value. Item: E35-scFv LS30E (scFv, V domains shown) VH: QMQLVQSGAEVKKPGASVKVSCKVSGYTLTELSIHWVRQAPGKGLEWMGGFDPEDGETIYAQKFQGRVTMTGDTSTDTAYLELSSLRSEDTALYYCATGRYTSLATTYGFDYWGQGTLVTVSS VL: EIVMTQSPATLSLSPGERATLSCRASQSVESYLAWYQQKPGQAPRLLIYGASSRATGIPDRFSGSGSGTDFTLTISRLEPEDFAVYYCQQYDNWPYTFGQGTKLEIK
0.1

Supply IC50, TF-1 cell proliferation value. Item: E35-scFv LA51N (scFv, V domains shown) VH: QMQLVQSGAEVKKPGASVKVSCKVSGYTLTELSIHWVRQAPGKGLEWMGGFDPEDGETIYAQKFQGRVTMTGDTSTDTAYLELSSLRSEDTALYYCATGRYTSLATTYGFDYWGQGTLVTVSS VL: EIVMTQSPATLSLSPGERATLSCRASQSVSSYLAWYQQKPGQAPRLLIYGNSSRATGIPDRFSGSGSGTDFTLTISRLEPEDFAVYYCQQYDNWPYTFGQGTKLEIK
0.36

FYI, the data here is from patent US20230002496A1.
